Test: Biodistribution of 99mTc(N)(X)(DTC)+ heterocomplexes in rats
Type: in vivo, male Spraque-Dawley rats (SD rats)
Conditions: 10 min after injection
Can you tell me Blood % dose/g for the items I'm about to list?
Answers are plain numbers, in % dose/g.

Would you mind giving Blood % dose/g for every compound in the list below?
1. CSC1=[S+][99Tc-2]2(#[N])([NH]N1C)[P+](c1ccccc1)(c1ccccc1)CCOCC[P+]2(c1ccccc1)c1ccccc1 [^99mTc(N)(POP)(DTC)^+]
2. COCCC[P]1(CCCOC)CCN(CCOC)CC[P](CCCOC)(CCCOC)[99Tc+]12(#[N])[NH]N(C)C(SC)=[S]2 [^99mTc(N)(PNP3)(DTC)^+]
3. COCCN1CC[P+](c2ccccc2)(c2ccccc2)[99Tc-2]2(#[N])([NH]N(C)C(SC)=[S+]2)[P+](c2ccccc2)(c2ccccc2)CC1 [^99mTc(N)(PNP2)(DTC)^+]
4. CCCN1CC[P+](c2ccccc2)(c2ccccc2)[99Tc-2]2(#[N])([NH]N(C)C(SC)=[S+]2)[P+](c2ccccc2)(c2ccccc2)CC1 [^99mTc(N)(PNP1)(DTC)^+]

1: 0.542; 2: 0.147; 3: 0.355; 4: 0.495
